Recorded measurements of inhibition, one per entry
# assayed system: Inhibitor of nuclear factor kappa-B kinase subunit beta (Homo sapiens) (UniProt O14920)
# Sequence (whole entry): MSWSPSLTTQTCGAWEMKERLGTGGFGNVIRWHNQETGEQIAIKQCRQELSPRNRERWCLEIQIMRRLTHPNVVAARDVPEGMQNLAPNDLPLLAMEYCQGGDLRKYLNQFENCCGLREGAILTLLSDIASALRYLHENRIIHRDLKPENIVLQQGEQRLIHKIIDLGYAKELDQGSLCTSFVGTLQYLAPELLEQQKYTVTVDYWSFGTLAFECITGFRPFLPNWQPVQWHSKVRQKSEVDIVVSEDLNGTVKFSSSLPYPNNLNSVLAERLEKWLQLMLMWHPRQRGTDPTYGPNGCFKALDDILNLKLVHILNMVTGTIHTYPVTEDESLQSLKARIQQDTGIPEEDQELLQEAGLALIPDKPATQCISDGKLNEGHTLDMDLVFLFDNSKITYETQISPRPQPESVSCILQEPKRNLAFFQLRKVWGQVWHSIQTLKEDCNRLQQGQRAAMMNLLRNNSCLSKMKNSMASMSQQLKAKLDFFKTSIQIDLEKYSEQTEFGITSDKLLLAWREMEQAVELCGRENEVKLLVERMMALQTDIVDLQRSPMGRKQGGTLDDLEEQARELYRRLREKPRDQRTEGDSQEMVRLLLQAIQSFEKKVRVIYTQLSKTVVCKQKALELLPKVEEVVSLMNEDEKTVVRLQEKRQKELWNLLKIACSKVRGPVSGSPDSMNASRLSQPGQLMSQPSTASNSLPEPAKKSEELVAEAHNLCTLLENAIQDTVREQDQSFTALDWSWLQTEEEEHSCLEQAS
# experimental details: Inhibition of IKK2 at 10 uM using 5-FAM-GRHDSGLDSMK-NH2 as substrate by TR-FRET assay
Your answer should be a plain number; it is taken to be in %.

Provide one value: measured inhibition of `CN1CCN(S(=O)(=O)c2ccc(-c3ccnc(NC4CCN(S(C)(=O)=O)CC4)n3)cc2)CC1`
43.1

Provide measured inhibition value, entry: `O=C(c1ccc(C(F)(F)F)cc1)N1CCC(Nc2nccc(-c3ccc(Cl)cc3)n2)CC1`
24.3

Answer with the recorded inhibition for the compound listed here: `O=S(=O)(c1ccc(F)cc1)N1CCC(Nc2nccc(-c3ccc(Cl)cc3)n2)CC1`
13.5

// Input: `CS(=O)(=O)N1CCC(Nc2nccc(-c3ccc(Cl)cc3)n2)CC1` . Output its inhibition only.
73.6

Tell us which inhibition value is on record for `O=S(=O)(c1ccc(-c2ccnc(NC3CCNCC3)n2)cc1)N1CCNCC1`
84.1

Annotate the compound `CS(=O)(=O)N1CCC(Nc2nccc(-c3ccc(S(=O)(=O)N4CCOCC4)cc3)n2)CC1` with its measured inhibition.
61.5

Return value of inhibition for input `O=S(=O)(N1CCC(Nc2nccc(-c3ccc(Cl)cc3)n2)CC1)C(F)(F)F` , no commentary.
13.9

Supply reported inhibition belonging to this compound: `O=S(=O)(c1ccc(-c2ccnc(NC3CCNCC3)n2)cc1)N1CCOCC1`
82.5

Item `CN1CCC(Nc2nccc(-c3ccc(S(=O)(=O)N4CCOCC4)cc3)n2)CC1` : provide inhibition
67.1

Provide one value: measured inhibition of `NS(=O)(=O)N1CCC(Nc2nccc(-c3ccc(S(=O)(=O)N4CCNCC4)cc3)n2)CC1`
70.9

Return inhibition (reported value) for this compound: `O=C(c1cccc(F)c1)N1CCC(Nc2nccc(-c3ccc(Cl)cc3)n2)CC1`
38.8

Determine from records and report inhibition for `O=S(=O)(c1ccccc1F)N1CCC(Nc2nccc(-c3ccc(Cl)cc3)n2)CC1`
20.3

Tell me inhibition reported for `CS(=O)(=O)N1CCC(Nc2nccc(-c3ccc(S(=O)(=O)N4CCNCC4)cc3)n2)CC1`
76.1

Return value of inhibition for input `O=S(=O)(c1ccc(F)cc1F)N1CCC(Nc2nccc(-c3ccc(Cl)cc3)n2)CC1` , no commentary.
19.7
